Source listed as ChEMBL document CHEMBL5252509.

Target: Serine/threonine-protein kinase Nek3 (Homo sapiens) (UniProt P51956)
Sequence (whole entry): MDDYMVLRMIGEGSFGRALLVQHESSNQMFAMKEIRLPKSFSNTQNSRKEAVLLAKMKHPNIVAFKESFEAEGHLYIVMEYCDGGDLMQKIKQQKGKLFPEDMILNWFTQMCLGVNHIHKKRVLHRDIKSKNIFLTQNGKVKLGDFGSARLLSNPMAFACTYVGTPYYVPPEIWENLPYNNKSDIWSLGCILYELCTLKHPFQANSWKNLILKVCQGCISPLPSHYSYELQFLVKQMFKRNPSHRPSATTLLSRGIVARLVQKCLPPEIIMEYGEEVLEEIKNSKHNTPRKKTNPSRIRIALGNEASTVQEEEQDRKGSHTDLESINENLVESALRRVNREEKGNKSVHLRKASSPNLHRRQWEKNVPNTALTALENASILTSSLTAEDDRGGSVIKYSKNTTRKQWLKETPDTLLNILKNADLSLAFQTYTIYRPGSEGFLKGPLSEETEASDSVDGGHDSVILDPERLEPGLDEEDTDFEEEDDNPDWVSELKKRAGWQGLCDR
Experiment: Inhibition of NEK3 (unknown origin) at 1 uM relative to control
Grouping key: inhibition. Bins: category 1 = under 1%, category 2 = from 1% up to 10%, category 3 = 10% and over

{"columns": ["SMILES INPUT", "CATEGORY"],
 "data": [
  ["Cc1ccccc1CC(=O)N1CCc2cc(-c3cn(C)c4ncnc(N)c34)ccc21", "category 1"],
  ["COc1ccc(C2=C(Nc3cccc(C(=O)O)c3)C(=O)NC2=O)cc1", "category 3"],
  ["NCCNS(=O)(=O)c1ccc(-c2ccnc3[nH]ccc23)cc1", "category 3"],
  ["Cc1ccc(CC(=O)N2CCc3cc(-c4cn(C)c5ncnc(N)c45)ccc32)cc1", "category 2"],
  ["Nc1ncc(-c2cn[nH]c2)c2scc(-c3ccc4c(c3)CCN4C(=O)Cc3ccccc3)c12", "category 1"],
  ["O=c1[nH]ccc2nc(N[C@@H]3CCCNC3)nc(Nc3ccc(S(=O)(=O)N4CCOCC4)cc3)c12", "category 3"],
  ["CS(=O)(=O)Nc1ccc(-c2ccnc3[nH]ccc23)cc1", "category 2"],
  ["Cn1cc(-c2ccc3c(c2)CCN3C(=O)Cc2cc(F)cc(C(F)(F)F)c2)c2c(N)ncnc21", "category 1"],
  ["CC(C)(C)c1nc(-c2cccc(NS(=O)(=O)c3c(F)cccc3F)c2F)c(-c2ccnc(N)n2)s1", "category 3"],
  ["Nc1nccc2scc(-c3ccc4c(c3)CCN4C(=O)Cc3cc(F)ccc3F)c12", "category 1"],
  ["Cn1cc(-c2ccc3c(c2)CCN3C(=O)Cc2ccccc2Cl)c2c(N)ncnc21", "category 1"],
  ["COc1cccc(C2=C(Nc3cccc(Cl)c3)C(=O)NC2=O)c1", "category 2"],
  ["COc1cccc(C2=C(Nc3ccc(Cl)c(C(=O)O)c3)C(=O)NC2=O)c1", "category 2"],
  ["COc1cccc(C2=C(Nc3cccc(O)c3)C(=O)NC2=O)c1", "category 3"],
  ["COc1cc(Nc2ncc3c(C)nc(-c4cc5ccccc5[nH]4)n3n2)cc(OC)c1OC", "category 3"],
  ["CN(C)CCNS(=O)(=O)c1ccc(-c2ccnc3[nH]ccc23)cc1", "category 1"],
  ["CC(C)c1nc(-c2cccc(NS(=O)(=O)c3ccccc3)c2)c(-c2ccnc(Nc3ccc4c(c3)CN(C)CC4)n2)s1", "category 3"],
  ["Cn1cc(-c2ccc3c(c2)CCN3C(=O)Cc2cccc(F)c2)c2c(N)ncnc21", "category 3"],
  ["CC(C)c1nc(-c2cccc(NS(=O)(=O)c3c(F)cccc3F)c2F)c(-c2ccnc(Nc3ccc(N4CCOCC4)nc3)n2)s1", "category 3"]
]}

* * *

biological target: Serine/threonine-protein kinase Nek11 (Homo sapiens) (UniProt Q8NG66); assay: Inhibition of NEK11 (unknown origin) at 1 uM relative to control
Sequence (Q8NG66 whole entry): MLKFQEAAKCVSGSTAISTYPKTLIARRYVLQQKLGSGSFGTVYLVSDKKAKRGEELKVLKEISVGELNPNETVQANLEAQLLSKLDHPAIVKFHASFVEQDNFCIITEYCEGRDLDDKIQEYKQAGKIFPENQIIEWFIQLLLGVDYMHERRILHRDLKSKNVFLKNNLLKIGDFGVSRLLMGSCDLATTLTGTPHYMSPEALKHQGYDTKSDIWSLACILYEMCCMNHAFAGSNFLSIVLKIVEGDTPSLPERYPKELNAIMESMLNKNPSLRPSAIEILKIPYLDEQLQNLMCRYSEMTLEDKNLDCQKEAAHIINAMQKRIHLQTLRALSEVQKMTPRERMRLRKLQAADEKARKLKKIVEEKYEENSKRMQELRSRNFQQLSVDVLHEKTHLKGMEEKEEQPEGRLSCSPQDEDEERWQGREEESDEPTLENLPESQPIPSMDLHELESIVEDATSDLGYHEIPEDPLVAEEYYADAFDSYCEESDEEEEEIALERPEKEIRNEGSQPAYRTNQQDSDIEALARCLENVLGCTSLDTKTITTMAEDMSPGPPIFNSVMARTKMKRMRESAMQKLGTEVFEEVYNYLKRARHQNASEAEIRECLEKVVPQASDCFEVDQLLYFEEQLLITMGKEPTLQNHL
Quick rule for you: inhibition at 2% or higher means y, lower means n.

{"columns": ["SMILES INPUT", "CATEGORY"],
 "data": [
  ["Cn1cc(-c2ccc3c(c2)CCN3C(=O)Cc2cccc(F)c2)c2c(N)ncnc21", "y"],
  ["O=S(=O)(c1ccc(-c2ccnc3[nH]ccc23)cc1)N1CCCC1", "n"],
  ["NCCNS(=O)(=O)c1ccc(-c2ccnc3[nH]ccc23)cc1", "y"],
  ["Nc1nccc2scc(-c3ccc4c(c3)CCN4C(=O)Cc3ccccc3)c12", "n"],
  ["Cn1cc(-c2ccc3c(c2)CCN3C(=O)Cc2cccc(Cl)c2)c2c(N)ncnc21", "n"],
  ["CN(C)CCNS(=O)(=O)c1ccc(-c2ccnc3[nH]ccc23)cc1", "n"],
  ["Cn1cc(-c2ccc3c(c2)CCN3C(=O)Cc2cc(F)cc(F)c2F)c2c(N)ncnc21", "y"],
  ["COc1cccc(CC(=O)N2CCc3cc(-c4cn(C)c5ncnc(N)c45)ccc32)c1", "y"],
  ["Cn1cc(-c2ccc3c(c2)CCN3C(=O)Cc2cccc(C(F)(F)F)c2)c2c(N)ncnc21", "y"],
  ["CS(=O)(=O)Nc1ccc(-c2ccnc3[nH]ccc23)cc1", "y"],
  ["Cc1ccc(CC(=O)N2CCc3cc(-c4cn(C)c5ncnc(N)c45)ccc32)cc1", "y"],
  ["Cn1cc(-c2cnc(N)c3c(-c4ccc5c(c4)CCN5C(=O)Cc4ccccc4)csc23)cn1", "y"],
  ["COc1ccc(Nc2ncc(C#N)c(Nc3ccccc3C(N)=O)n2)cc1N1CCN(C)CC1", "y"],
  ["O=C1NC(=O)C(c2ccccc2Cl)=C1Nc1cccc(Cl)c1", "n"],
  ["CC(C)Oc1ccc2c(-c3ccnc(Nc4ccc(N5CCN(C)CC5)cc4)n3)cnn2n1", "y"],
  ["Cn1cc(-c2ccc3c(c2)CCN3C(=O)Cc2cc(F)cc(C(F)(F)F)c2)c2c(N)ncnc21", "y"],
  ["CC(C)c1nc(-c2cccc(NS(=O)(=O)c3ccccc3)c2)c(-c2ccnc(Nc3ccc4c(c3)CN(C)CC4)n2)s1", "y"],
  ["Cc1ccccc1CC(=O)N1CCc2cc(-c3cn(C)c4ncnc(N)c34)ccc21", "y"]
]}

* * *

target: Serine/threonine-protein kinase Nek10 (Homo sapiens) (UniProt Q6ZWH5); experiment: Inhibition of NEK10 (unknown origin) at 1 uM relative to control
Sequence (Q6ZWH5 whole entry): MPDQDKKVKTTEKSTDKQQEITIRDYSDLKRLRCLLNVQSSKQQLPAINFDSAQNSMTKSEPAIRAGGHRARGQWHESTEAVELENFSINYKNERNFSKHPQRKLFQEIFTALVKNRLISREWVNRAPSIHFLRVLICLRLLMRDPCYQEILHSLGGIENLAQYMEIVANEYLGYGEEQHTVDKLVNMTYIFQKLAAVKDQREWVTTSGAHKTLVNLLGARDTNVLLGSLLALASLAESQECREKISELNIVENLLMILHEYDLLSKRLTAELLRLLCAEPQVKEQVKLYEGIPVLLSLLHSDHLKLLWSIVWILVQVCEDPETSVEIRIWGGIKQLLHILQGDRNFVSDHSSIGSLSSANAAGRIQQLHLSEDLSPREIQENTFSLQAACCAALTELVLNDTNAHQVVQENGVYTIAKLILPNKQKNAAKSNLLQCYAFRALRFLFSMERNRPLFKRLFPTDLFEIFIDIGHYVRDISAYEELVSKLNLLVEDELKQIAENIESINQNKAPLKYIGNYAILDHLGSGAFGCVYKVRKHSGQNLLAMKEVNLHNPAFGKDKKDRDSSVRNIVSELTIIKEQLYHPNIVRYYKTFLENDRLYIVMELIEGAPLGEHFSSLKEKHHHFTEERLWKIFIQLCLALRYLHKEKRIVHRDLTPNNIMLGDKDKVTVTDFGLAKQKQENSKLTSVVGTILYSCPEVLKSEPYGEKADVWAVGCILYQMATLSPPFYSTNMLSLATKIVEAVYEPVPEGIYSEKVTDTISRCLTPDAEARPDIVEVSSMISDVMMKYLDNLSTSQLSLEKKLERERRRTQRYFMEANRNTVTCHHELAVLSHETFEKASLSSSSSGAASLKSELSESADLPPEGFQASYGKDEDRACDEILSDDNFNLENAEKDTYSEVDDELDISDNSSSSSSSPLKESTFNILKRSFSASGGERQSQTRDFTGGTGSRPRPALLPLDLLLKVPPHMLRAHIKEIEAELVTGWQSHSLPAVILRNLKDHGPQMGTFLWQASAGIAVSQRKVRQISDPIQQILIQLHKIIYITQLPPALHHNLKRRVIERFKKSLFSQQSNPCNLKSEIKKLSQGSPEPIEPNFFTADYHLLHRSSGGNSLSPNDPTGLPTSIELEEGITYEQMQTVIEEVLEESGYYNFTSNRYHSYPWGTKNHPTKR
Below, each of the compounds is paired with its reported inhibition value.

{"columns": ["SMILES INPUT", "UNIT DESCRIPTOR", "inhibition"],
 "data": [
  ["CC(C)c1nc(-c2cccc(NS(=O)(=O)c3c(F)cccc3F)c2F)c(-c2ccnc(Nc3ccc(N4CCOCC4)nc3)n2)s1", "%", 100],
  ["Nc1ncc(-c2cccnc2)c2scc(-c3ccc4c(c3)CCN4C(=O)Cc3ccccc3)c12", "%", 14],
  ["COc1cccc(C2=C(Nc3cccc(Cl)c3)C(=O)NC2=O)c1", "%", 73],
  ["COc1ccc(C2=C(Nc3cccc(C(=O)O)c3)C(=O)NC2=O)cc1", "%", 2],
  ["c1ccc(-c2ccnc3[nH]ccc23)cc1", "%", 30],
  ["CS(=O)(=O)Nc1ccc(-c2ccnc3[nH]ccc23)cc1", "%", 71],
  ["Nc1ncc(-c2cn[nH]c2)c2scc(-c3ccc4c(c3)CCN4C(=O)Cc3ccccc3)c12", "%", 22],
  ["Cn1cc(-c2cccc3c(N)c(C(N)=O)nnc23)cn1", "%", 48]
]}

* * *

Below, each of the compounds is paired with its reported inhibition value.
Target: Serine/threonine-protein kinase Nek2 (Homo sapiens) (UniProt P51955)
Sequence (whole entry): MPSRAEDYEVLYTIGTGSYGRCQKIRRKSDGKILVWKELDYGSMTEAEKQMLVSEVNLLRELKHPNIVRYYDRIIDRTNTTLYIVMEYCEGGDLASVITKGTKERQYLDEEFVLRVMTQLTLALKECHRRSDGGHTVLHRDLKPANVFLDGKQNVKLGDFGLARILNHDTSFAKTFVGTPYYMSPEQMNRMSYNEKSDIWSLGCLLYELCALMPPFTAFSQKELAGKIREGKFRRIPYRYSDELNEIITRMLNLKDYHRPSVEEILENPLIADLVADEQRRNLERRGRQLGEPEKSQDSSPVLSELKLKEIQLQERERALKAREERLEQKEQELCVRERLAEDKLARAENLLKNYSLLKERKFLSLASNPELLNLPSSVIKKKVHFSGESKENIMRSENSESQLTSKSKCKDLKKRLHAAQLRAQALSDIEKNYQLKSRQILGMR
Assay: Inhibition of NEK2 (unknown origin) at 1 uM relative to control
REPORTED PROPERTY: inhibition

{"columns": ["SMILES INPUT", "REPORTED PROPERTY", "VALUE OBSERVED"],
 "data": [
  ["CC(C)c1nc(-c2cccc(NS(=O)(=O)c3c(F)cccc3F)c2F)c(-c2ccnc(Nc3ccc(N4CCOCC4)nc3)n2)s1", "inhibition", "0.9%"],
  ["COc1cccc(C2=C(Nc3ccc(Cl)c(C(=O)O)c3)C(=O)NC2=O)c1", "inhibition", "0%"],
  ["CN(C)CCNS(=O)(=O)c1ccc(-c2ccnc3[nH]ccc23)cc1", "inhibition", "0%"],
  ["CS(=O)(=O)Nc1ccc(-c2ccnc3[nH]ccc23)cc1", "inhibition", "0%"]
]}
